Source listed as paper PMC2864424.

- system tested: OATP1B3 (Homo sapiens, UniProt Q9NPD5)
- Sequence (Q9NPD5 whole entry): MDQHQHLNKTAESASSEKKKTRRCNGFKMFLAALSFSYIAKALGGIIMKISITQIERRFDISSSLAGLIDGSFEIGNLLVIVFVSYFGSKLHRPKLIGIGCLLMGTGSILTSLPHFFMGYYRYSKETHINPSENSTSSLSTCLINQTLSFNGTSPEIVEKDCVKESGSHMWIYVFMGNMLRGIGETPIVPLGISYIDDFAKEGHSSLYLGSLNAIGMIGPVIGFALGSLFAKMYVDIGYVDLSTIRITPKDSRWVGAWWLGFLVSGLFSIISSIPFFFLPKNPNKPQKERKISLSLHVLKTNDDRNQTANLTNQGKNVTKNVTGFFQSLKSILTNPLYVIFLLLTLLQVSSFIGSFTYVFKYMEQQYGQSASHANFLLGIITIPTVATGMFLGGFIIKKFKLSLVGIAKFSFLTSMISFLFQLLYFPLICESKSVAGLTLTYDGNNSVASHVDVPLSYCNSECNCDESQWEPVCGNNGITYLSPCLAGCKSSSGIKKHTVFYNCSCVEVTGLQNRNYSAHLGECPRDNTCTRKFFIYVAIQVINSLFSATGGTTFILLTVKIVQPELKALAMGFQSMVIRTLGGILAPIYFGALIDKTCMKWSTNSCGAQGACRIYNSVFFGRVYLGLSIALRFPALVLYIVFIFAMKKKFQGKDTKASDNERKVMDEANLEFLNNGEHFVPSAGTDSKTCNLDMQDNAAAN
- Format: cell-based
- condition set: human, CHO cells stably expressing OATP1B3, pH 7.4
recorded endpoint: Km at 2 min (µM)
Numeric only. Scale: µM

Recorded Km at 2 min of `O=C1OC2(c3ccc(O)cc3Oc3cc(O)ccc32)c2ccccc21` , please.
82

====

Target sequence: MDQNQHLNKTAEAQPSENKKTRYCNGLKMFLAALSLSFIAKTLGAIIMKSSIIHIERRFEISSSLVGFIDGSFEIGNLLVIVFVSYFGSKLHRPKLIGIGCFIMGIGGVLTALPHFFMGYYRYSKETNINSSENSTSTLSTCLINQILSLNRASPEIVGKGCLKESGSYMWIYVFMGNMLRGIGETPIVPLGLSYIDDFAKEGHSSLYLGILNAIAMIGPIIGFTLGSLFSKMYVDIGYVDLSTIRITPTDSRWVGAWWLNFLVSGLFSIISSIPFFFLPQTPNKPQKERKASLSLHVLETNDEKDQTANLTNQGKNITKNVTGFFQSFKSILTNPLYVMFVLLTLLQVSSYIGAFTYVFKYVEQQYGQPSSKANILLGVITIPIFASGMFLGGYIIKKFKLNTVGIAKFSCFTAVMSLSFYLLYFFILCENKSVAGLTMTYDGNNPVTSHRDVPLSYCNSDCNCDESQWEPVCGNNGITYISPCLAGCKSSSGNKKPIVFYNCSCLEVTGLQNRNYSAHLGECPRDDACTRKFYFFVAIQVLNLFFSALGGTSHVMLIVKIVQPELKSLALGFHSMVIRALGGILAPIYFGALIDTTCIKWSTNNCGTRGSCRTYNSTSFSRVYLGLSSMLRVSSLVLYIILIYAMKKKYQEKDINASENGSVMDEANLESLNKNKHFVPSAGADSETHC
recorded endpoint: pIC50
pIC50 (log units): -log10 of the concentration in mol/L.

Recorded pIC50 of CC(=O)[C@H]1CC[C@H]2[C@@H]3CCC4=CC(=O)CC[C@]4(C)[C@H]3CC[C@]12C [progesterone] , please.
5.27

====

- Test system: OATP1B1 and OATP1B3 (not distinguished)
- Assay type: cell-based, human
- condition set: human, CHO cells stably expressing OATP1B1 or OATP1B3, pH 7.4, probe FMTX, 5 µM
Reported IC50 at 30 min is given for each of the following compounds.

compound	system tested	IC50 at 30 min
Cc1ncc([N+](=O)[O-])n1CCO	OATP1B1 and OATP1B3 (not distinguished)	> 100 µM
CO[C@H]1/C=C/O[C@@]2(C)Oc3c(C)c(O)c4c(O)c(c(/C=N/N5CCN(C)CC5)c(O)c4c3C2=O)NC(=O)/C(C)=C\C=C\[C@H](C)[C@H](O)[C@@H](C)[C@@H](O)[C@@H](C)[C@H](OC(C)=O)[C@@H]1C	OATP1B1 and OATP1B3 (not distinguished)	1.3 to 1.5 µM
CCOC(=O)c1cncn1[C@H](C)c1ccccc1 [Etomidate]	OATP1B1 and OATP1B3 (not distinguished)	> 100 µM
O=c1[nH]c(=O)n([C@H]2C[C@H](O)[C@@H](CO)O2)cc1C(F)(F)F	OATP1B1 and OATP1B3 (not distinguished)	> 100 µM

Moving on to the next compound.
Recorded IC50 at 30 min of `CCN1C[C@]2(COC)[C@H](O)C[C@H](OC)[C@@]34[C@@H]5C[C@@]6(O)[C@H](OC(=O)c7ccccc7)[C@@H]5[C@@](OC(C)=O)([C@@H]([C@H](OC)[C@H]23)[C@@H]14)[C@@H](O)[C@@H]6OC` , please.
> 100 µM

====

- system tested: OATP1B3 (Homo sapiens)
- Format: cell-based
recorded endpoint: pEC50
pEC50 (log units): -log10 of the concentration in mol/L.

Recorded pEC50 of CC(=O)[C@H]1CC[C@H]2[C@@H]3CCC4=CC(=O)CC[C@]4(C)[C@H]3CC[C@]12C [progesterone] , please.
6.70
